The following molecules are shown together with reported viability at 72 h, 0.00610352 uM values.
test: Cytotoxicity assay (CellTiter-Glo, 72 h), MESO-1; assay type: cell-based; settings: human, MESO-1 malignant pleural mesothelioma cells, conc 0.00610352 uM; raw replicate data; read-out: MESO1 viability (%)

Molecule	viability at 72 h, 0.00610352 uM
CO[C@H]1C[C@@H]2CC[C@@H](C)[C@@](O)(O2)C(=O)C(=O)N2CCCC[C@H]2C(=O)O[C@H]([C@H](C)C[C@@H]2CC[C@@H](O)[C@H](OC)C2)CC(=O)[C@H](C)/C=C(\C)[C@@H](O)CC[C@H](C)/C=C/C=C/C=C/1C [Compound 7]	100%
COC1CC2CCC(C)C(O)(O2)C(=O)C(=O)N2CCCCC2C(=O)OC(C(C)CC2CCC(O)C(OC)C2)CC(O)CC(=O)C(C)C=C(C)C(O)CC(=O)C(C)CC(C)C=CC=CC=C1C (stereo not drawn) [Compound 13]	108%
CO[C@@H]1/C=C/C=C/[C@@H](C)C[C@@H](C)C(=O)C[C@H](O)/C(C)=C/[C@@H](C)C(=O)C[C@@H]([C@H](C)C[C@@H]2CC[C@@H](O)[C@H](OC)C2)OC(=O)[C@@H]2CCCCN2C(=O)C(=O)[C@]2(O)O[C@@H](CC[C@H]2C)C1 [Compound 9]	95.6%
CO[C@@H]1C[C@H](C[C@@H](C)[C@@H]2CC(=O)[C@H](C)/C=C(\C)[C@@H](O)[C@@H](OC)C(=O)[C@H](C)C[C@H](C)/C=C/C=C/C=C(\C)[C@H](O)C[C@@H]3CC[C@@H](C)[C@@](O)(O3)C(=O)C(=O)N3CCCC[C@H]3C(=O)O2)CC[C@H]1O [Compound 17, (16R)-16-O-demethyl rapamycin]	89.6%
COC1CC2CCC(C)C(O)(O2)C(=O)C(=O)N2CCCCC2C(=O)OC(C(C)CC2CCC(O)C(OC)C2)CCC(C)C=C(C)C(O)C(OC)C(=O)C(C)CC(C)C=CC=CC=C1C (stereo not drawn) [Compound 16, 32-desketorapamycin]	80.5%
CO[C@H]1C[C@@H]2CC[C@@H](C)[C@@](O)(O2)C(=O)C(=O)N2CCCC[C@H]2C(=O)O[C@H]([C@H](C)C[C@@H]2CC[C@@H](O)[C@H](OC)C2)CC(=O)[C@H](C)/C=C(\C)[C@@H](O)CC(=O)[C@H](C)C[C@H](C)/C=C/C=C(C)/C=C/1C [Compound 2, 27-demethoxy-19-methyl rapamycin]	105%
CO[C@H]1C[C@@H]2CC[C@@H](C)[C@@](O)(O2)C(=O)C(=O)N2CCCC[C@H]2C(=O)O[C@H]([C@H](C)C[C@@H]2CC[C@@H](O)[C@H](OC)C2)CC(=O)[C@H](C)/C=C(\C)[C@@H](O)[C@@H](OC)C(=O)[C@H](C)C[C@H](C)/C=C/C=C/C=C/1C [Compound 1, rapamycin, reference compound]	78.3%
COC1CC2CCC(C)C(O)(O2)C(=O)C(=O)N2CCCCC2C(=O)OC(C(C)CC2CCC(O)C(OC)C2)CC(=O)C(C)C=C(C)C(O)CC(=O)C(C)C=C(C)C=CC=CC=C1C (stereo not drawn) [Compound 14]	95.7%
COC1CC2CCC(C)C(O)(O2)C(=O)C(=O)N2CCCCC2C(=O)OC(C(C)CC2CCC(O)C(OC)C2)CC(=O)C(C)C=C(C)C(O)C(OC)C(=O)C(C)CC(C)C=CCCC=C1C (stereo not drawn) [Compound 15, 19,20-dihidro-rapamycin]	90.8%
